# Tested on: YANK3;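 further: KINOMEscan kinase panel screen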
# Construct: gene STK32C
# COND: concentration: 1 μM, replicates: in singlicate; n = 1
Here, each record is paired with measured %Inh data.
PROPERTY_MEASURED: %Inh (%)

molecule="CCCCCc1nc2c(N)ncnc2n1CCCCC [SKF-97255]" property_measured=%Inh recorded_number=0
molecule="CCn1cnc2c(N)ncnc21 [GW345098]" property_measured=%Inh recorded_number=0
molecule=O=C(NOCC1CC1)c1ccc(F)c(F)c1Nc1ccc(I)cc1Cl property_measured=%Inh recorded_number=0
molecule="N#Cc1ccc(-c2cc(-c3c[nH]nc3-c3ccccn3)ccn2)cc1 [GW693028]" property_measured=%Inh recorded_number=6
molecule=COc1cc2c(cc1OC[C@@H](O)CO)ncc1c3ccc(C#N)cc3[nH]c21 property_measured=%Inh recorded_number=0
molecule=CN1c2ccc(CNc3ccc(F)cc3)cc2-c2c(cnn2C)S1(=O)=O property_measured=%Inh recorded_number=0
molecule="CN(C(=O)c1ccc(-c2cc(-c3c[nH]nc3-c3ccccn3)ccn2)cc1)C1CCOCC1 [GW810083]" property_measured=%Inh recorded_number=0
molecule="c1ccc(-c2cc(-c3c[nH]nc3-c3ccccn3)ccn2)cc1 [GW576604]" property_measured=%Inh recorded_number=0
molecule=Cc1cccc(-c2nc(-c3ccc(S(C)(=O)=O)cc3)sc2-c2ccncc2)c1 property_measured=%Inh recorded_number=23
molecule="COc1ccc(S(=O)(=O)NC2CCN(c3cc(C)nc(Nc4cccc(C#N)c4)n3)CC2)cc1.O=C(O)C(F)(F)F [GSK1653539]" property_measured=%Inh recorded_number=0
